Numbers sourced from ChEMBL document CHEMBL1201862.

# assayed_target: X-box-binding protein 1 (Homo sapiens, UniProt P17861);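 also: confirmatory dose-response counter-screen serving a CHOP assay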
# Sequence (P17861 whole entry): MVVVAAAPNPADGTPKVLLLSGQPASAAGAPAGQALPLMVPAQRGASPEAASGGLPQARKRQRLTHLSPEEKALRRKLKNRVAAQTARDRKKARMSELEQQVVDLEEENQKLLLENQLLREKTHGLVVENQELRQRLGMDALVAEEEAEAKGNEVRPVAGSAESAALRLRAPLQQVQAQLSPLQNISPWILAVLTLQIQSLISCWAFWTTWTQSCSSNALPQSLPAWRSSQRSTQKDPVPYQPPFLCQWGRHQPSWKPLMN
# Type: functional, Cricetulus griseus

>  <compound>
CCOC(=O)N1CCC(n2c(=S)[nH]c3cc(OCC)c(OCC)cc3c2=O)CC1

>  <Absolute IC50 (XBP1) (µM)>
10

$$$$
>  <compound>
CC(=O)OC[C@]12CCC(C)=C[C@H]1O[C@@H]1[C@H](O)[C@@H](OC(C)=O)[C@@]2(C)[C@]12CO2 [ANGUIDIN]

>  <Absolute IC50 (XBP1) (µM)>
0.16

$$$$
>  <compound>
COc1ccc(C(=O)/C=C/C(=O)N(CC(=O)NC2CCCCC2)Cc2cccs2)c(O)c1

>  <Absolute IC50 (XBP1) (µM)>
10

$$$$
>  <compound>
Cn1c(=O)cc(SCC(=O)NCCC2=CCCCC2)c2ccc(Cl)cc21

>  <Absolute IC50 (XBP1) (µM)>
10

$$$$
